Kindly supply the reported Kd values for the records listed here.
Molecular target: T1, PUF4 RNA-binding domain (Saccharomyces cerevisiae, UniProt P25339 537-888)
T1 sequence: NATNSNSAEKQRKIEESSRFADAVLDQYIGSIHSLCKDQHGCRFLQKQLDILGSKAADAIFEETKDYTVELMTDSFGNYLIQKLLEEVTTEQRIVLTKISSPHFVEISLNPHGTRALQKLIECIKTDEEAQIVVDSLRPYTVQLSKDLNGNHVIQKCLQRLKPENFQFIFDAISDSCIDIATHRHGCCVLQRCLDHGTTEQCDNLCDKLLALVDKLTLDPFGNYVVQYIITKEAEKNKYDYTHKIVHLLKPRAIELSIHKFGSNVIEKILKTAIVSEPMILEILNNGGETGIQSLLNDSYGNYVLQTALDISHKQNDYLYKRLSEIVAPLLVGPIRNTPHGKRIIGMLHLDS
Test: Mg; RNA-MaP; 20 mM Na-HEPES pH 7.4, 30 mM KOAc, 0.75 mM MgCl2, 0.1% Tween-20, 5% glycerol, 0.1 mg/mL BSA, 2 mM DTT; 25 C; 0.0125-409.6 nM protein
Conditions: tags: N-His6-TEV cleaved; C-SNAP kept, Cy3B-labelled; label: tethered on chip by stalled RNA polymerase

Prompt: Any idea what Kd was measured for UCUCUUUGUAAAUCCUCUCUU (ssRNA) [Ic_S1_P4E.1_K4.1_C4.1_H4.1_A4.1_[T5A]_F4.1_[T8C]_[A9C]_T4.1] ?
Completion: 368 nM

Prompt: What do you get for ACAAACUCUAGAUAACAAAC (ssRNA) [Ib_S3_P3E.1_K3.1_C3.1_H3.1_[G2C]_A3.1_[T5G]_F3.1_T3.1] ?
Completion: > 2300 nM

Prompt: What do you get for ACAAACGAUAUAUAUUAAAACAAAC (ssRNA) [Id_ii_S3_P4E.3_K4.2_C4.2_[C-2G]_[T-1A]_H4.2_A4.1_F4.1_T4.2_[G10A]_[T11A]] ?
Completion: 74.6 nM

Prompt: What do you get for ACAAACCCACACUAUUAACACAAAC (ssRNA) [Id_ii_S3_P4E.4_K4.3_C4.2_[T-1C]_H4.3_A4.1_F4.1_T4.2_[G10A]_[T11C]] ?
Completion: > 2300 nM

Prompt: What do you get for ACAAACCGUAUAUAUACCACAAAC (ssRNA) [Id_ii_S3_P3E.3_K3.2_C3.2_[T-1G]_H3.2_A3.1_F3.1_T3.2_[T9C]_[A10C]] ?
Completion: 1540 nM

Prompt: What do you get for UCUCUUUGCCCUUAUAUUAUCUCUU (ssRNA) [Ie_S1_P4E.1_K4.1_C4.1_H4.1_[+2CCCT]_A4.1_F4.1_T4.1] ?
Completion: 1080 nM

Prompt: What do you get for Id_ii_S2_P5E.2_K5.1_C5.2_[C-2G]_H5.1_A5.1_F5.1_T5.2_[T11G]_[A12T] (ssRNA) RNA: UUUGAUUAAUAUGAUAUCGUUCUUUCUGUUGUAUUAUUAGUUUCUUUCUCGAUAUCAUAUUAAUCUUU ?
Completion: 3.05 nM

Prompt: What do you get for Id_ii_S4_P3E.4_K3.3_C3.2_[C-2T]_[T-1C]_H3.3_A3.1_F3.1_T3.2_[A10T] (ssRNA) RNA: UUUGACAACUGAUCGUUCUUUCUUCACACUAUAUUUUCUUUCUCGAUCAGUUGUCUUU ?
Completion: 1430 nM

Prompt: What do you get for Id_ii_S4_P3E.2_K3.1_C3.2_H3.1_A3.1_F3.1_T3.2_[T9G]_[A10T] (ssRNA) RNA: UUUGACAACUGAUCGUUCUUUCUCUUGUAUAUAGUUUCUUUCUCGAUCAGUUGUCUUU ?
Completion: 3.88 nM

Prompt: What do you get for UCUCUUUGUACUACAUCUCUU (ssRNA) [Ic_S1_P4E.1_K4.1_C4.1_H4.1_A4.1_[T5C]_[A6T]_[T7A]_F4.1_[T8C]_T4.1] ?
Completion: 140 nM

Prompt: What do you get for Id_ii_S2_P5E.4_K5.3_C5.2_[C-2T]_[T-1C]_H5.3_A5.1_F5.1_T5.2_[T11C]_[A12C] (ssRNA) RNA: UUUGAUUAAUAUGAUAUCGUUCUUUCUUCACACUUAUUACCUUCUUUCUCGAUAUCAUAUUAAUCUUU ?
Completion: > 2300 nM

Prompt: What do you get for UCUCUUCCACACUAUAUUUCUCUU (ssRNA) [Id_ii_S1_P3E.4_K3.3_C3.2_[T-1C]_H3.3_A3.1_F3.1_T3.2_[A10T]] ?
Completion: > 2300 nM

Prompt: What do you get for UCUCUUUGUAGCUAUCUCUU (ssRNA) [Ib_S1_P3E.1_K3.1_C3.1_H3.1_A3.1_[T5G]_[A6C]_F3.1_T3.1] ?
Completion: 819 nM
